Target: Peptidyl-prolyl cis-trans isomerase A (Homo sapiens)
Sequence (P62937 whole entry): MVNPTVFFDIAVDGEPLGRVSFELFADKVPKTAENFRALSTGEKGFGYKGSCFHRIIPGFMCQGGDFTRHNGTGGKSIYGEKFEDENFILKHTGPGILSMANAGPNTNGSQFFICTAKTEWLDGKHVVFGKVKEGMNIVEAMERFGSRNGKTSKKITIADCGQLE
Assay: Immunosuppressive activity was measured by inhibition of the IL-2 production in Jurkat cells.
hey, just use MET if measured IC50 is less than 200 nM, otherwise NOT MET

Task item: Determine if "C/C=C/C[C@@H](C)[C@@H](O)[C@H]1C(=O)N[C@@H](CC)C(=O)N(C)[C@H](CO)C(=O)N(C)[C@@H](CC(C)(C)O)C(=O)N[C@@H](C(C)C)C(=O)N(C)[C@@H](CC(C)C)C(=O)N[C@@H](C)C(=O)N[C@H](C)C(=O)N(C)[C@@H](CC(C)C)C(=O)N(C)[C@@H](CC(C)C)C(=O)N(C)[C@@H](C(C)C)C(=O)N1C" shows IC50 strictly lower than 200 nM.
Reply: NOT MET

Task item: Do the same for "C/C=C/C[C@@H](C)[C@@H](O)[C@H]1C(=O)N[C@@H](CC)C(=O)N(C)[C@H](SCCN(C)C(C)(C)C)C(=O)N(C)[C@@H](CC(C)(C)O)C(=O)N[C@@H](C(C)C)C(=O)N(C)[C@@H](CC(C)C)C(=O)N[C@@H](C)C(=O)N[C@H](C)C(=O)N(C)[C@@H](CC(C)C)C(=O)N(C)[C@@H](CC(C)C)C(=O)N(C)[C@@H](C(C)C)C(=O)N1C" please
Reply: NOT MET

Task item: Can you handle "C/C=C/C[C@@H](C)[C@@H](O)[C@H]1C(=O)N[C@@H](CC)C(=O)N(C)CC(=O)N(C)[C@@H](CC(C)(C)O)C(=O)N[C@@H](C(C)C)C(=O)N(C)[C@@H](CC(C)C)C(=O)N[C@@H](C)C(=O)N[C@H](C)C(=O)N(C)[C@@H](CC(C)C)C(=O)N(C)[C@@H](CC(C)C)C(=O)N(C)[C@@H](C(C)C)C(=O)N1C" next?
Reply: MET

Task item: Follow-up item: "C/C=C/C[C@@H](C)[C@@H](O)[C@H]1C(=O)N[C@@H](CC)C(=O)N(C)[C@H](SC)C(=O)N(C)[C@@H](CC(C)C)C(=O)N[C@@H](C(C)C)C(=O)N(C)[C@@H](CC(C)C)C(=O)N[C@@H](C)C(=O)N[C@H](C)C(=O)N(C)[C@@H](CC(C)C)C(=O)N(C)[C@@H](CC(C)C)C(=O)N(C)[C@@H](C(C)C)C(=O)N1C"
Reply: MET

Task item: How about this compound: "C/C=C/C[C@@H](C)[C@@H](O)[C@H]1C(=O)N[C@@H](CC)C(=O)N(C)[C@H](SCCN(C)C)C(=O)N(C)[C@@H](CC(C)C)C(=O)N[C@@H](C(C)C)C(=O)N(C)[C@@H](CC(C)C)C(=O)N[C@@H](C)C(=O)N[C@H](C)C(=O)N(C)[C@@H](CC(C)C)C(=O)N(C)[C@@H](CC(C)C)C(=O)N(C)[C@@H](C(C)C)C(=O)N1C"
Reply: MET

====

Molecular target: Human immunodeficiency virus type 1 reverse transcriptase (Human immunodeficiency virus 1, UniProt Q72547)
Experiment: In vitro inhibitory activity against HIV-1 RT in CEM4 cell line
quantity name: pIC50
In textbook form, pIC50 equals minus log to base ten of the concentration in mol/L.

Task item: Reported pIC50 for "C/C=C/C[C@@H](C)[C@@H](O)[C@H]1C(=O)N[C@@H](CC)C(=O)N(C)[C@H](SCCn2ccnc2)C(=O)N(C)[C@@H](CC(C)C)C(=O)N[C@@H](C(C)C)C(=O)N(C)[C@@H](CC(C)C)C(=O)N[C@@H](C)C(=O)N[C@H](C)C(=O)N(C)[C@@H](CC(C)C)C(=O)N(C)[C@@H](CC(C)C)C(=O)N(C)[C@@H](C(C)C)C(=O)N1C" : what is it?
Reply: 7.09

Task item: Same question for C/C=C/C[C@@H](C)[C@@H](O)C1C(=O)N[C@@H](CC)C(=O)N(C)CC(=O)N(C)[C@@H](CC(C)(C)O)C(=O)N[C@@H](C(C)C)C(=O)N(C)[C@@H](CC(C)C)C(=O)N[C@@H](C)C(=O)N[C@H](C)C(=O)N(C)[C@@H](CC(C)C)C(=O)N(C)[C@@H](CC(C)C)C(=O)N(C)[C@@H](C(C)C)C(=O)N1C (stereo partly specified) please.
Reply: 6.86

Task item: Please answer likewise for "C/C=C/C[C@@H](C)[C@@H](O)[C@H]1C(=O)N[C@@H](CC)C(=O)N(C)[C@H](SCCO)C(=O)N(C)[C@@H](CC(C)C)C(=O)N[C@@H](C(C)C)C(=O)N(C)[C@@H](CC(C)C)C(=O)N[C@@H](C)C(=O)N[C@H](C)C(=O)N(C)[C@@H](CC(C)C)C(=O)N(C)[C@@H](CC(C)C)C(=O)N(C)[C@@H](C(C)C)C(=O)N1C"
Reply: 7.15

Task item: Same question for "C/C=C/C[C@@H](C)[C@@H](O)[C@H]1C(=O)N[C@@H](CC)C(=O)N(C)[C@H](SCCN(C)C(C)C)C(=O)N(C)[C@@H](CC(C)C)C(=O)N[C@@H](C(C)C)C(=O)N(C)[C@@H](CC(C)C)C(=O)N[C@@H](C)C(=O)N[C@H](C)C(=O)N(C)[C@@H](CC(C)C)C(=O)N(C)[C@@H](CC(C)C)C(=O)N(C)[C@@H](C(C)C)C(=O)N1C" please.
Reply: 7.71

Task item: Follow-up item: "C/C=C/C[C@@H](C)[C@@H](O)[C@H]1C(=O)N[C@@H](CC)C(=O)N(C)[C@H](SCCN(C)C(C)(C)C)C(=O)N(C)[C@@H](CC(C)(C)O)C(=O)N[C@@H](C(C)C)C(=O)N(C)[C@@H](CC(C)C)C(=O)N[C@@H](C)C(=O)N[C@H](C)C(=O)N(C)[C@@H](CC(C)C)C(=O)N(C)[C@@H](CC(C)C)C(=O)N(C)[C@@H](C(C)C)C(=O)N1C"
Reply: 7.37

Task item: How about this compound: "C/C=C/C[C@@H](C)[C@@H](O)[C@H]1C(=O)N[C@@H](CC)C(=O)N(C)[C@H](SCCO)C(=O)N(C)[C@@H](CC(C)(C)O)C(=O)N[C@@H](C(C)C)C(=O)N(C)[C@@H](CC(C)C)C(=O)N[C@@H](C)C(=O)N[C@H](C)C(=O)N(C)[C@@H](CC(C)C)C(=O)N(C)[C@@H](CC(C)C)C(=O)N(C)[C@@H](C(C)C)C(=O)N1C"
Reply: 7.10

These measurements were taken from ChEMBL document CHEMBL1136490.
